Molecular target: Cytochrome P450 3A4 (Homo sapiens)
Sequence (P08684 whole entry): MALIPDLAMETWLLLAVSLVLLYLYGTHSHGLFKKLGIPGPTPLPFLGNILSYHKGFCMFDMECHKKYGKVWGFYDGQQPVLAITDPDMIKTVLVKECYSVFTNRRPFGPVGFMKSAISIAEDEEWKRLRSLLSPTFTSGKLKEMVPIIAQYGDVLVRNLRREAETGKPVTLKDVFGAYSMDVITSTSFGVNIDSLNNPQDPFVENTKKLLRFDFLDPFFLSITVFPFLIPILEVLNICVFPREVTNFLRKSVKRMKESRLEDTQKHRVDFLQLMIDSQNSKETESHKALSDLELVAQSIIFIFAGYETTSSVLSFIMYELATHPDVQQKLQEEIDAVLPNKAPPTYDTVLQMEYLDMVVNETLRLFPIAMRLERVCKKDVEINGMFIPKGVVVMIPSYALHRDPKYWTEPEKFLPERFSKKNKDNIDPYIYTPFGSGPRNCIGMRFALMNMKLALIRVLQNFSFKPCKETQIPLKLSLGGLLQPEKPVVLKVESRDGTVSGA
RESULT TYPE: pIC50
# reply with the number alone; pIC50 is -log10 of concentration in mol/L

**Query** Kindly state the measured pIC50 obtained for C[C@]1(c2cc(/C=C(\F)c3ccc(C#N)cn3)ccc2F)N=C(N)S[C@@]2(C(=O)N3CCOCC3)C[C@H]21 with Cytochrome P450 3A4 (Homo sapiens).
**Result** 5.28

----------
We begin with a simple list: items and their reported IC50.
Target: Beta-secretase 2 (Homo sapiens)
Sequence (Q9Y5Z0 whole entry): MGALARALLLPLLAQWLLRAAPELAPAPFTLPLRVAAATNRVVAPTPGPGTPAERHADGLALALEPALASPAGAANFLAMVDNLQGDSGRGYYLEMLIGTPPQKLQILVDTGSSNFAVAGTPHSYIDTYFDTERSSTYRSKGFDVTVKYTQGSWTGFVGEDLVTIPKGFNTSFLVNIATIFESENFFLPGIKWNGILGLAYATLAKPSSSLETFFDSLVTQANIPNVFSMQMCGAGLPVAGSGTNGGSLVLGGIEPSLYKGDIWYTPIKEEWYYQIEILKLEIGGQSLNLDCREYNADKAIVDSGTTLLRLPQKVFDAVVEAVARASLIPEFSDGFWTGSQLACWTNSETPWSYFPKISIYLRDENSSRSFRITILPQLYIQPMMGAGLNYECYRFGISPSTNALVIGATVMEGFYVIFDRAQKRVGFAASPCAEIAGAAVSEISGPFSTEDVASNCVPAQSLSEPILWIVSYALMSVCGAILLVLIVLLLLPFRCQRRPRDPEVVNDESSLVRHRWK
Test: Inhibition of recombinant human BACE2 using fluorescence substrate preincubated for 60 mins followed by substrate addition and measured after 60 mins by FRET assay
Report as a plain number; the unit nM is understood.

**Query** Entry C[C@]1(c2cc(/C=C(\F)c3ccc(C#N)cn3)ccc2F)N=C(N)S[C@@]2(C(=O)N3CCCCC3)C[C@H]21 has what IC50?
**Result** 45

**Query** Entry CN(C)C(=O)[C@]12C[C@H]1[C@@](C)(c1cc(/C=C(\F)c3ccc(C#N)cn3)ccc1F)N=C(N)S2 has what IC50?
**Result** 14

**Query** Entry COC[C@]12C[C@H]1[C@@](CF)(c1cc(/C=C/c3ccc(Cl)cn3)ccc1F)N=C(N)S2 has what IC50?
**Result** 1370

**Query** Entry CNC(=O)[C@]12C[C@H]1[C@@](C)(c1cc(/C=C(\F)c3ccc(C#N)cn3)ccc1F)N=C(N)S2 has what IC50?
**Result** 69

**Query** Entry C[C@]1(c2cc(/C=C(\F)c3ccc(C#N)cn3)ccc2F)N=C(N)S[C@@]2(S(C)(=O)=O)C[C@H]21 has what IC50?
**Result** 31

**Query** Entry COC[C@]12C[C@H]1[C@@](CF)(c1cc(NC(=O)c3ccc(Cl)cn3)ccc1F)N=C(N)S2 has what IC50?
**Result** 1

**Query** Entry COC[C@]12C[C@H]1[C@@](C)(c1cc(/C=C(\F)c3ccc(C#N)cn3)ccc1F)N=C(N)S2 has what IC50?
**Result** 260

**Query** Entry CC(=O)[C@]12C[C@H]1[C@@](C)(c1cc(/C=C(\F)c3ccc(C#N)cn3)ccc1F)N=C(N)S2 has what IC50?
**Result** 210
